Assay: in vitro
Conditions: mouse, microsomes, 1 h, 1 μM, pH 7.4
assay-endpoint: Percent Remaining 60 min

molecule: CCN(CC)c1ccc(/C=N/NC(=O)Cn2nnc(-c3ccccc3)n2)c(O)c1 [Compound N77A7]
result: <1.0%

molecule: CCCN(CCC)Cc1c(C(=O)N/N=C/c2ccc(N(CC)CC)cc2O)nnn1-c1nonc1N [Compound 7]
result: 1.4%

molecule: CCN(CC)Cc1c(C(=O)N/N=C/c2ccc(N(CC)CC)cc2O)nnn1-c1nonc1N [Compound 6]
result: 1.2%

molecule: CCN(CC)c1ccc(/C=N/NC(=O)c2cc(C)n[nH]2)c(O)c1 [Compound 3]
result: <1.0%

molecule: CCN(CC)c1ccc(/C=N\NC(=O)c2nnn(-c3nonc3N)c2CN2CCCCCC2)c(O)c1 [Compound 4]
result: <1.0%

molecule: CCN(CC)c1ccc(/C=N/NC(=O)Cn2c3ccccc3c(=O)c3ccccc32)c(O)c1 [Compound 2]
result: 21%

###

Assay: in vitro
Details: human, microsomes, 20 min, 1 μM, pH 7.4
Protocol: Additionally, several of the N77A7 analogs were subjected to the test for the metabolic stability in human and mouse liver microsomes. Briefly, 1 μM of test compound was incubated with microsomal protein (human liver microsomes: 0.5 mg/mL; mouse liver microsomes 0.5 mg/mL) and buffer (100 mM potassium phosphate, pH 7.4, 5 mM magnesium chloride). […] The percent remaining at each time point was determined by the test compound's peak area response ratio versus the 0 minute sample.
Strictly below 30% in Percent Remaining 20 min: class 1. Otherwise: class 0.

query-smiles: CCCN(CCC)Cc1c(C(=O)N/N=C/c2ccc(N(CC)CC)cc2O)nnn1-c1nonc1N
group-label: class 1
--
query-smiles: CCN(CC)Cc1c(C(=O)N/N=C/c2ccc(N(CC)CC)cc2O)nnn1-c1nonc1N
group-label: class 0
--
query-smiles: CCN(CC)c1ccc(/C=N/NC(=O)c2cc(C)n[nH]2)c(O)c1
group-label: class 0
--
query-smiles: CCN(CC)c1ccc(/C=N\NC(=O)c2nnn(-c3nonc3N)c2CN2CCCCCC2)c(O)c1
group-label: class 0
--
query-smiles: CCN(CC)c1ccc(/C=N/NC(=O)Cn2c3ccccc3c(=O)c3ccccc32)c(O)c1
group-label: class 0

###

Overview of reported Myc Index N across a group of molecules:
System: HO-N-myc cells
Experiment: Secondary filter for Myc specificity: cell growth inhibition, methylene blue staining
Type: cell-based, rat
Settings: ID50 in HO-null cells divided by ID50 in HO—N-myc cells

molecule: CC(=O)NC(c1ccc2c(c1)OCO2)c1ccc2cccnc2c1O (centres unmarked)
target-under-test: HO-N-myc cells
result-modifier: =
Myc Index N: 4.5
--
molecule: O=C(NC(NC(=S)Nc1ccc(I)cc1)C(Cl)(Cl)Cl)c1cccc([N+](=O)[O-])c1 (centres unmarked)
target-under-test: HO-N-myc cells
result-modifier: =
Myc Index N: 2.4
--
molecule: CC(C)(C)c1cc(C(=O)N/N=C/c2ccc(O)cc2O)n(-c2ccccc2)n1
target-under-test: HO-N-myc cells
result-modifier: =
Myc Index N: 5
--
molecule: O=C(COc1ccc2ccccc2c1)N/N=C\c1cc(O)c(O)c(Br)c1
target-under-test: HO-N-myc cells
result-modifier: >
Myc Index N: 1.1
--
molecule: CCN(CC)c1ccc(/C=N/NC(=O)c2cc(Br)ccc2O)c(O)c1
target-under-test: HO-N-myc cells
result-modifier: >
Myc Index N: 11
--
molecule: O=C(N/N=C\c1cc(Cc2ccccc2Cl)ccc1O)c1cncc(Br)c1
target-under-test: HO-N-myc cells
result-modifier: >
Myc Index N: 6
--
molecule: O=C(N/N=C/c1c(O)ccc2ccccc12)c1cc(C23CC4CC(CC(C4)C2)C3)n[nH]1
target-under-test: HO-N-myc cells
result-modifier: =
Myc Index N: 2.7
--
molecule: O=c1[nH]c2ccc(/N=C/c3cn(Cc4ccc(Cl)cc4Cl)c4ccccc34)cc2[nH]1
target-under-test: HO-N-myc cells
result-modifier: >
Myc Index N: 6

###

Assay: in vitro
Conditions: mouse, microsomes, 10 min, 1 μM, pH 7.4
Percent Remaining 10 min overview
assay-endpoint: Percent Remaining 10 min (%)

query-smiles: CCN(CC)c1ccc(/C=N\NC(=O)c2nnn(-c3nonc3N)c2CN2CCCCCC2)c(O)c1
assay-endpoint: Percent Remaining 10 min
numeric-result: 3.1
--
query-smiles: CCN(CC)c1ccc(/C=N/NC(=O)Cn2nnc(-c3ccccc3)n2)c(O)c1
assay-endpoint: Percent Remaining 10 min
numeric-result: 25
--
query-smiles: CCN(CC)c1ccc(/C=N/NC(=O)c2cc(C)n[nH]2)c(O)c1
assay-endpoint: Percent Remaining 10 min
numeric-result: 39
--
query-smiles: CCCN(CCC)Cc1c(C(=O)N/N=C/c2ccc(N(CC)CC)cc2O)nnn1-c1nonc1N
assay-endpoint: Percent Remaining 10 min
numeric-result: 26
--
query-smiles: CCN(CC)c1ccc(/C=N/NC(=O)Cn2c3ccccc3c(=O)c3ccccc32)c(O)c1
assay-endpoint: Percent Remaining 10 min
numeric-result: 45
--
query-smiles: CCN(CC)Cc1c(C(=O)N/N=C/c2ccc(N(CC)CC)cc2O)nnn1-c1nonc1N
assay-endpoint: Percent Remaining 10 min
numeric-result: 20
